# assay-target: T1, canine NGF tagged at the C-terminus with the Flag tag (canine, UniProt A0A8I3PYI3 122-241)
# T1 construct: mature; Expressed with baculovirus technology; also called feline NGF (processed form identical)
# T1 sequence (A0A8I3PYI3 entry or part of it): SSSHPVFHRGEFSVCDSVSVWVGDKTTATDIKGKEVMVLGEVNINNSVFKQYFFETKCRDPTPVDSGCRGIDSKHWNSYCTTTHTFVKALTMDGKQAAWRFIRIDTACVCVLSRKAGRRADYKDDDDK
# procedure-details: SPR off-rate screen, Fab-SASA on BSA chip
value-kind: kon

>  <binder>
felinized clone 101 Fab-SASA variant N53M (VL) (Fab, V domains shown, not shown: small tags and cut ends) VH: DVQLVESGGDLVKPGGSLRLTCVASGLSLTSSSMSWVRQAPGKGLQWVSTIYSNGGTYYTDSVKGRFTISKDNAENTLYLQMNNLKTEDTATYYCASIYYYDADYLHWYFDFWGQGALVTVSS VL: EIQMTQSPTSLSASVGDRVTITCRASEGISNNLSWYQQTPGKAPKLLIYATSMLHSGVPSRFSGSGSGTDFTLTISSLQPEDFATYYCQQGYKWPLTFGGGTKLEITR

>  <value-kind>
kon

>  <result-value>
346000 M⁻¹ s⁻¹

$$$$
>  <binder>
felinized clone 101 Fab-SASA variant T60S (VH) (Fab, V domains shown, not shown: small tags and cut ends) VH: DVQLVESGGDLVKPGGSLRLTCVASGLSLTSSSMSWVRQAPGKGLQWVSTIYSNGGTYYSDSVKGRFTISKDNAENTLYLQMNNLKTEDTATYYCASIYYYDADYLHWYFDFWGQGALVTVSS VL: EIQMTQSPTSLSASVGDRVTITCRASEGISNNLSWYQQTPGKAPKLLIYATSNLHSGVPSRFSGSGSGTDFTLTISSLQPEDFATYYCQQGYKWPLTFGGGTKLEITR

>  <value-kind>
kon

>  <result-value>
325000 M⁻¹ s⁻¹

$$$$

Numbers sourced from patent US20250011410A1.
